Attribution: patent US9908899B2

- study-target: HDAC3/NcoR2 (Homo sapiens (Human), UniProt O15379)
- Sequence (O15379 whole entry): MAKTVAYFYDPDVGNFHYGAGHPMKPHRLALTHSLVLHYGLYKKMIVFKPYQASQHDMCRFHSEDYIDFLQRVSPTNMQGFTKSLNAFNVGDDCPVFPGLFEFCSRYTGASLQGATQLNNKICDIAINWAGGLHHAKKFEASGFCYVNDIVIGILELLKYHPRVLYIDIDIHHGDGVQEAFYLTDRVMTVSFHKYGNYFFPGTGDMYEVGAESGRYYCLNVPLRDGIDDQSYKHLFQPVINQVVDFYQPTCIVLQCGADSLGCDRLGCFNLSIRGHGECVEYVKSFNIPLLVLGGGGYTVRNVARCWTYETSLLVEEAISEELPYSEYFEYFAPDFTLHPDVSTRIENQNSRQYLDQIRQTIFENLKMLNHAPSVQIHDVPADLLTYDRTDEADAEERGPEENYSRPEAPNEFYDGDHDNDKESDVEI
- Sequence (Q9Y618 395-489 partner): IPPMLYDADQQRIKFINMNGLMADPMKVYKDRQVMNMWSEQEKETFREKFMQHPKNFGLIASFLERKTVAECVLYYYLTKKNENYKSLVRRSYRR
- measurement-notes: HDAC activity inhibition assay, HDAC3/NcoR2
- Type: biochemical
- condition: Table 1; 2 hours pre-incubation
pIC50: −log10 of the molar value.
readout: pIC50

The following molecules have reported results that may help.
CN1CCC(Cn2cc(/C=C/C(=O)Nc3ccccc3N)cn2)CC1 = > 6.00
Cc1nn(C/C=C/c2ccccc2)c(C)c1/C=C/C(=O)Nc1ccccc1N = > 6.00
Nc1ccccc1NC(=O)/C=C/c1cnn(CCOc2ccc(F)cc2)c1 = > 6.00
Nc1ccccc1NC(=O)c1ccc(C=C2CCN(Cc3cccnc3)CC2)cc1 = > 6.00
Nc1ccccc1NC(=O)/C=C/c1cnn(CCOc2cc(F)cc(F)c2)c1 = > 6.00
Nc1ccccc1NC(=O)/C=C/c1cnn(CCCOc2ccccc2)c1 = > 6.00

stdin: What measured pIC50 is associated with Nc1ccccc1NC(=O)/C=C/c1csc(C/C=C/c2ccccc2)n1 [E2] on HDAC3/NcoR2 (Homo sapiens (Human), UniProt O15379)?
stdout: > 6.00

stdin: What measured pIC50 is associated with Nc1ccccc1NC(=O)/C=C/c1cnn(CCCc2ccccc2)c1 on HDAC3/NcoR2 (Homo sapiens (Human), UniProt O15379)?
stdout: > 6.00

stdin: What measured pIC50 is associated with Nc1ccccc1NC(=O)/C=C/c1cn2ccnc2s1 on HDAC3/NcoR2 (Homo sapiens (Human), UniProt O15379)?
stdout: > 6.00

====

- study-target: UniProtKB Q13547
- Sequence (Q13547 whole entry): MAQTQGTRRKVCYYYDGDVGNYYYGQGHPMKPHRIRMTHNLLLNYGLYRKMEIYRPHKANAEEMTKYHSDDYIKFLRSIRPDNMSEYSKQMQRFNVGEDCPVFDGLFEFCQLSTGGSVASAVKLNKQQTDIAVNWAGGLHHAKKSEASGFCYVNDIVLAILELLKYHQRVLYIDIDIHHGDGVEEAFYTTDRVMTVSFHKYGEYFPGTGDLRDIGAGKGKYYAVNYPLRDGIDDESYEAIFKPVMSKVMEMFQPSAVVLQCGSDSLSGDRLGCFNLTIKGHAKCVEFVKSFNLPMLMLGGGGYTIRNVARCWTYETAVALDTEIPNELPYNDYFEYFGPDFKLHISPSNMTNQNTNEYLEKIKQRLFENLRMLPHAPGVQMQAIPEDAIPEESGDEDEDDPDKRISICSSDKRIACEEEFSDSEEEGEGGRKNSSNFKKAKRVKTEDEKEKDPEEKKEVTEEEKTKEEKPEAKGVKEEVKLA
- measurement-notes: HDAC activity inhibition assay, HDAC1
- Format: biochemical
pIC50: −log10 of the molar value.
readout: pIC50

stdin: What measured pIC50 is associated with Cn1cc(/C=C/C(=O)Nc2cc(F)ccc2N)cn1 [C3] on UniProtKB Q13547?
stdout: 5.30 to 6.00

====

Below, each entry is listed alongside its reported IC50.
- study-target: HDAC3/NcoR2 (Homo sapiens (Human), UniProt O15379)
- measurement-notes: HDAC activity inhibition assay, HDAC3/NcoR2
- Format: biochemical
- condition: Table 1; 2 hours pre-incubation

The following molecules have reported results that may help.
Cc1cc(/C=C/C(=O)Nc2ccccc2N)on1 = < 1000 nM
Nc1ccccc1NC(=O)/C=C/c1cnn(CC2CC2)c1 = < 1000 nM
Nc1ccccc1NC(=O)c1ccc(C=C2CCN(C(=O)OCc3ccccc3)CC2)cc1 = < 1000 nM
Nc1ccccc1NC(=O)c1ccc(C=C2CCN(Cc3cccnc3)CC2)c(Cl)c1 = < 1000 nM

stdin: Report IC50 for Nc1ccccc1NC(=O)/C=C/c1cnn(CCOc2ccc(C(F)(F)F)cc2)c1 please.
stdout: < 1000 nM

stdin: Report IC50 for Nc1ccccc1NC(=O)/C=C/c1cnn(CCOCc2ccccc2)c1 please.
stdout: < 1000 nM

stdin: Report IC50 for Cn1cc(/C=C/C(=O)Nc2ccccc2N)cn1 please.
stdout: < 1000 nM

stdin: Report IC50 for Nc1ccccc1NC(=O)/C=C/c1cn2ccccc2n1 please.
stdout: < 1000 nM

stdin: Report IC50 for Nc1ccccc1NC(=O)/C=C/c1cnn(CCCCc2ccccc2)c1 please.
stdout: < 1000 nM

stdin: Report IC50 for Nc1ccccc1NC(=O)/C=C/c1cnn(CC(F)(F)c2ccccc2)c1 please.
stdout: < 1000 nM
